# MEASURED ON: EcoRI restriction endonuclease (UniProt P00642 1-277)
# Sequence (P00642 whole entry): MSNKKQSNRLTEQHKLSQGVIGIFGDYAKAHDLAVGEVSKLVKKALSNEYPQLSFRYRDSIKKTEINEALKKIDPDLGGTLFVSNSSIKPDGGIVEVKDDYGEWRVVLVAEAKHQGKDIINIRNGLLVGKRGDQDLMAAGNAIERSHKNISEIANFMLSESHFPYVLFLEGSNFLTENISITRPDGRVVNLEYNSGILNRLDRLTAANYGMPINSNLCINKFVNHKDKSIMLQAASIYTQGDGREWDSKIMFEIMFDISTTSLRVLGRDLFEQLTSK
# PROCEDURE SUMMARY: nanopore rupture with qPCR
VALUE TYPE: binding signal

binder="105 bp TGACTTC (third base A to C) (dsDNA) DNA 1: TAAGTTGGGTAACGCCAGGGTTTTCCCAGTCACGACGTTGTAAAACGACGGCCAGTGACTTCGAGCTCGGTACCCGGGGATCCTCTAGAGTCGACCTGCAGGCAT DNA 2: ATGCCTGCAGGTCGACTCTAGAGGATCCCCGGGTACCGAGCTCGAAGTCACTGGCCGTCGTTTTACAACGTCGTGACTGGGAAAACCCTGGCGTTACCCAACTTA" value_type="binding signal" result="1.02 V (threshold voltage)"
binder="105 bp TGCATTC (second base A to C) (dsDNA) DNA 1: TAAGTTGGGTAACGCCAGGGTTTTCCCAGTCACGACGTTGTAAAACGACGGCCAGTGCATTCGAGCTCGGTACCCGGGGATCCTCTAGAGTCGACCTGCAGGCAT DNA 2: ATGCCTGCAGGTCGACTCTAGAGGATCCCCGGGTACCGAGCTCGAATGCACTGGCCGTCGTTTTACAACGTCGTGACTGGGAAAACCCTGGCGTTACCCAACTTA" value_type="binding signal" result="0.93 V (threshold voltage)"

Please turn your attention to the following entry.
INPUT: State the recorded binding signal for this entry: 105 bp AGAATTC (5' flank T to A) (dsDNA) DNA 1: TAAGTTGGGTAACGCCAGGGTTTTCCCAGTCACGACGTTGTAAAACGACGGCCAGAGAATTCGAGCTCGGTACCCGGGGATCCTCTAGAGTCGACCTGCAGGCAT DNA 2: ATGCCTGCAGGTCGACTCTAGAGGATCCCCGGGTACCGAGCTCGAATTCTCTGGCCGTCGTTTTACAACGTCGTGACTGGGAAAACCCTGGCGTTACCCAACTTA
OUTPUT: 1.84 V (threshold voltage)
